- Test system: SR leukemia
- Method Description: NCI tumour cell line growth inhibition, 48 h
Could you please report measured TGI for the items listed next?

Which TGI value belongs to COc1cccc(N2CC(O)=C(c3nc4ccccc4s3)C2=N)c1 ? > 100 µM

Which TGI value belongs to NC(=Nc1ccccc1)N/N=C/c1c[nH]c2ccccc12 ? > 50.1 µM

Which TGI value belongs to CCCCCCCCCC1CC(=O)OC2=C1C(=O)CCC2 (centres undefined) ? > 100 µM

Which TGI value belongs to O=C(Nc1nc2c(C(F)(F)F)cccc2s1)c1cc(Cl)ccc1O ? 3.28 µM

---

- Test system: A498 renal
- Method Description: NCI tumour cell line growth inhibition, 48 h
Could you please report measured TGI for the items listed next?

Which TGI value belongs to CCC(=O)NC1=C(Cl)C(=O)C(NC(=O)CC)=C(Cl)C1=O ? > 72.6 µM

Which TGI value belongs to COC(=O)/C1=C/C=C\C[C@@]2(C)CC(c3ccoc3)OC(=O)[C@@H]2CC[C@H]1C (stereo partly drawn) ? > 25 µM

Which TGI value belongs to COc1ccc(NC(=O)CSC(=O)c2ccccc2)c(SCCSSCCSc2cc(OC)ccc2NC(=O)CSC(=O)c2ccccc2)c1 ? > 100 µM

---

Could you please report measured TGI for the items listed next?
- Test system: HS 578T breast
- Method Description: NCI tumour cell line growth inhibition, 48 h

Which TGI value belongs to O=C(Nc1nc2c(C(F)(F)F)cccc2s1)c1cc(Cl)ccc1O ? 26.3 µM

Which TGI value belongs to N=C(N)SCc1nc(-c2ccc(Cl)cc2)no1 ? > 100 µM

Which TGI value belongs to CCSC12OC3(CCCCCN3C1=O)C1C(=O)N(c3ccccc3)C(=O)C12 (centres undefined) ? > 100 µM

Which TGI value belongs to C[C@]12CC[C@H]3[C@@H](CC[C@]4(O)C[C@@H](O)CC[C@]34C=O)[C@@]1(O)CC[C@@H]2C1=CC(=O)OC1 ? > 100 µM

Which TGI value belongs to COc1nn(C)cc1Nc1nccc(-c2c[nH]c3c(NC(=O)[C@@H](C)N4CCN(C)CC4)cccc23)n1 ? > 100 µM

Which TGI value belongs to CC1=CC(C)=N/C(=N/S(=O)(=O)c2cc(C)c(Cl)cc2SCc2ccccc2)NN1 ? > 100 µM

Which TGI value belongs to O=C1C(c2ccccc2)=C(c2ccccc2)C1(Cl)Cl ? > 28.8 µM

Which TGI value belongs to COC(=O)N[C@@H]1C[C@H]2CC[C@]1(O[Si](C(C)C)(C(C)C)C(C)C)C(=O)C2 ? 31.5 µM

Which TGI value belongs to Cc1cc(I)cc(CN(C)CCCN2CCC(C)CC2)c1O ? 26.2 µM

Which TGI value belongs to CC(=O)C1=C(C)N(Cc2ccccc2)C2(O)C=CC(=O)C3=C(O)c4ccccc4C(=O)C312 (centres undefined) ? 60 µM

Which TGI value belongs to CCC(=O)OCOc1ccc(/C=C2\CCC(CN(C)C)C2=O)cc1 (centres undefined) ? > 79 µM

Which TGI value belongs to C=CCc1c(O)c(C(=O)/C=C/c2ccc(Cl)cc2)c(OC)c2ccoc12 ? 42.4 µM

Which TGI value belongs to COC(=O)/C1=C/C=C\C[C@@]2(C)CC(c3ccoc3)OC(=O)[C@@H]2CC[C@H]1C (some centres undefined) ? > 25 µM

Which TGI value belongs to Nc1nc2cc(Cl)ccc2n1N ? > 100 µM
